- SYSTEM: PNCK Nano-luciferase fusion (Homo sapiens, UniProt Q6P2M8)
- Construct: host or cells: HEK293
- Sequence (Q6P2M8 whole entry, the tested form may be a part): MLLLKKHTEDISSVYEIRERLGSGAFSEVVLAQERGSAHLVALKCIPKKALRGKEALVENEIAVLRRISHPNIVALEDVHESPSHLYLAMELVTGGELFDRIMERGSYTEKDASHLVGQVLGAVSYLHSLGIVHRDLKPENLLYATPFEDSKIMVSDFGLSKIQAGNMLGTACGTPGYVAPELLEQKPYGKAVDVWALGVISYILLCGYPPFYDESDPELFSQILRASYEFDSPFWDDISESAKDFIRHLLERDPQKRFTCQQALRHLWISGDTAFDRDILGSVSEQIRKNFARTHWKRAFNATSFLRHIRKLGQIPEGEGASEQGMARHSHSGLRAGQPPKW
- TEST_DETAILS: NanoBRET Target Engagement Intracellular Kinase Assay, cell-based PNCK binding screen and dose response in HEK293 cells
- STATED_CONDITIONS: compound 10uM; HEK293; K10 tracer 1uM; normalized to staurosporine and DMSO; read-out: Avg. Normalized % Inhibition, 10uM, Nanobret
Note to self: values exactly at 20% are Criterion met. So inhibition at 10 µM at or above 20% is Criterion met, below is Criterion not met.

>>> df
                                   compound   class_assignment
0  O=C(O)c1ccc(-c2nc3c([nH]2)CCN(C(=O)c2cc(C4CC4)n[nH]2)C3)cc1 [UM_034]  Criterion not met
1  Cc1ccnc2nc(C(=O)OCC(=O)c3ccc(Cl)cc3Cl)nn12 [UM_198]      Criterion met
2  O=c1[nH]c(CSc2ccccc2)nc2ccc(Cl)cc12 [UM_279]      Criterion met
3  COc1cc(OC)c(Nc2ncnc3sc(C(=O)O)c(C)c23)cc1Cl [UM_028]  Criterion not met
4  COc1ccc2[nH]c(SCc3cc(=O)n4c(C)cccc4n3)nc2c1 [UM_196]      Criterion met
5  Cc1noc2ncnc(N3CCC(n4c(C)nc5ccccc54)CC3)c12 [UM_215]  Criterion not met
6  O=C(O)c1cccc(NS(=O)(=O)/C=C/c2ccc(Cl)cc2)c1 [UM_235]  Criterion not met
7  O=c1oc2cc(OC3OC(CO)C(O)C(O)C3O)c(Cl)cc2c2c1CCCC2 (stereo not drawn) [UM_226]      Criterion met
8  CC(C)c1ccc(NS(=O)(=O)c2cc(-c3ccc(=O)[nH]n3)ccc2Cl)cc1 [UM_029]      Criterion met

* * *

- SYSTEM: PNCK Nano-luciferase fusion (Homo sapiens, UniProt Q6P2M8)
- TEST_DETAILS: NanoBRET Target Engagement Intracellular Kinase Assay, cell-based PNCK binding screen and dose response in HEK293 cells
- STATED_CONDITIONS: 8-point concentration-response, HEK293
// NB: equality with 9 µM counts as No; only IC50 strictly below is Yes

                                    compound                                    system  class_assignment
 0    N#Cc1cnc(Sc2nnc(-c3cccc4ccccc34)o2)cn1  PNCK Nano-luciferase fusion (Homo sapiens, UniProt Q6P2M8)               Yes
 1  CC1CCc2c(sc(NC(=O)CSc3ncnc4[nH]cnc34)c2C(N)=O)C1 (centres unmarked)  PNCK Nano-luciferase fusion (Homo sapiens, UniProt Q6P2M8)               Yes
 2  O=C(COc1ccc2c3c(c(=O)oc2c1)CCCCC3)N1CCc2ccccc21  PNCK Nano-luciferase fusion (Homo sapiens, UniProt Q6P2M8)                No
 3  CC1CCc2c(sc(NC(=O)CSc3ncc(-c4ccc(F)cc4)[nH]3)c2C(N)=O)C1 (centres unmarked)  PNCK Nano-luciferase fusion (Homo sapiens, UniProt Q6P2M8)               Yes
 4  O=c1[nH]c(CSc2ccc3ccccc3n2)nc2ccc(Cl)cc12  PNCK Nano-luciferase fusion (Homo sapiens, UniProt Q6P2M8)               Yes
 5  O=c1[nH]c(CSc2nc3ccccc3o2)nc2ccc(Cl)cc12  PNCK Nano-luciferase fusion (Homo sapiens, UniProt Q6P2M8)                No
 6  CCn1c(SCCCn2c(=O)[nH]c3ccccc32)n[nH]c1=O  PNCK Nano-luciferase fusion (Homo sapiens, UniProt Q6P2M8)                No
 7  C[C@@H]1CCc2c(sc(NC(=O)c3ccc(Cl)s3)c2C(N)=O)C1  PNCK Nano-luciferase fusion (Homo sapiens, UniProt Q6P2M8)               Yes
 8  Cc1nc2c3ccccc3nc(SCCCn3c(=O)[nH]c4ccccc43)n2n1  PNCK Nano-luciferase fusion (Homo sapiens, UniProt Q6P2M8)                No
 9  COC(=O)c1cnc(Sc2nnc(-c3cccc4ccccc34)o2)cn1  PNCK Nano-luciferase fusion (Homo sapiens, UniProt Q6P2M8)               Yes
10  O=C1CN(C(=O)COc2ccc3c4c(c(=O)oc3c2)CCCCC4)CCN1  PNCK Nano-luciferase fusion (Homo sapiens, UniProt Q6P2M8)               Yes
